Reference for the values: ChEMBL document CHEMBL5149995

- Experiment Description: Apparent permeability across basolateral to apical side in human Caco-2 cells
- Assay type: ADME, cell-based
Property Measured: Papp B→A (×10⁻⁶ cm/s)
Express it in ×10⁻⁶ cm/s; write the number only.

Problem: Which Papp B→A value is on record for C#Cc1ccnc(C#Cc2ccc3ncn(-c4ccnc(N)n4)c3c2)n1 ?
Result: 0.22

====

- System Name: Mitogen-activated protein kinase kinase kinase 14 (Homo sapiens, UniProt Q99558, S549D)
- Sequence (Q99558 whole entry S549D, the tested form may be a part): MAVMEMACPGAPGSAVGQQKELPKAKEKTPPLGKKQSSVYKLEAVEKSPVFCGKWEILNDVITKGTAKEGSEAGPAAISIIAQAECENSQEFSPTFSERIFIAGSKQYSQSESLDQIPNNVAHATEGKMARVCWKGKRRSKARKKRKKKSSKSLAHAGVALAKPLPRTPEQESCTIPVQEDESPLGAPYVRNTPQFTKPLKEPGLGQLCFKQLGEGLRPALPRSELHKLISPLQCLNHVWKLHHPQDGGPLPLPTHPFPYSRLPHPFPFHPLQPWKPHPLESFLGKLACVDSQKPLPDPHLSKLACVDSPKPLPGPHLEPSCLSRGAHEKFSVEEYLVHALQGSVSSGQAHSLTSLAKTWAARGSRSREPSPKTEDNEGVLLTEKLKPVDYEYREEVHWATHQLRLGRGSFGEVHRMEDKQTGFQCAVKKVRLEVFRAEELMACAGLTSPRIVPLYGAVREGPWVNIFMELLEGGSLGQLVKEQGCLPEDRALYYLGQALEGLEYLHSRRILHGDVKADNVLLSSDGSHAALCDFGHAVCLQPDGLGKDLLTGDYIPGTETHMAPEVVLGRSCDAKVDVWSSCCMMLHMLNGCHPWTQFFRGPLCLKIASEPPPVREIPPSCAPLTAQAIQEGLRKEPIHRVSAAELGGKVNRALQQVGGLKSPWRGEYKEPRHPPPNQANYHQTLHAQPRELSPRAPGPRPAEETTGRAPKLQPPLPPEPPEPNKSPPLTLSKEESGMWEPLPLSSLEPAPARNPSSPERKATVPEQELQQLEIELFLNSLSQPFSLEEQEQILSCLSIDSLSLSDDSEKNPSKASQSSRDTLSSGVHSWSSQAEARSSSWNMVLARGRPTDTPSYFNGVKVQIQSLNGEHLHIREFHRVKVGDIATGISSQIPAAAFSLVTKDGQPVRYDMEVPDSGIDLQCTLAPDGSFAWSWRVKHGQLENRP
- Experiment Description: Inhibition of His6-tagged human NIK (330 to 680 residues) S549D mutant expressed in baculovirus-infected Sf9 cells incubated for 30 mins in presence of ATP by ADP-GloTM assay
Measured IC50, listed per entry.
The response must be a number in µM with no trailing unit.

Guide cases for IC50, answers given:
Smiles Data	Unit Tag	IC50
C=Cc1ccc(C#Cc2ccc3ncn(-c4ccnc(N)n4)c3c2)cn1	µM	79.4
C#Cc1cncc(C#Cc2ccc3ncn(-c4ccnc(N)n4)c3c2)c1	µM	63.1
C=CC(=O)NCCCc1ccc2ncn(-c3ccnc(N)n3)c2c1	µM	501
CCc1ccc2ncn(-c3ccnc(N)n3)c2c1	µM	79.4
C#Cc1ncc(C#Cc2ccc3ncn(-c4ccnc(N)n4)c3c2)cn1	µM	79.4

# input for lookup
Problem: What value of IC50 has been reported for the following molecule? COCCOc1cnc(N)nc1-c1c[nH]c2ccc(C#CC(C)(C)O)cc12
Result: 0.0398
